Conditions: in isopropanol, 303.15 K
Assay readout: solubility (mole fraction)
No unit in the answer, please; the number alone is enough.

stdin: Which value of solubility (mole fraction) has been reported for `COc1ccc(CC(=O)O)cc1` in the records?
stdout: 0.228

---

Conditions: in toluene, 288.15 K
Assay readout: solubility (mole fraction)
No unit in the answer, please; the number alone is enough.

stdin: Which value of solubility (mole fraction) has been reported for `COc1ccc(CC(=O)O)cc1` in the records?
stdout: 0.0209

---

Settings: in water, 298.15 K
Assay readout: solubility (mole fraction)
No unit in the answer, please; the number alone is enough.

stdin: Which value of solubility (mole fraction) has been reported for `COc1ccc(CC(=O)O)cc1` in the records?
stdout: 0.0043

---

Conditions: in acetonitrile, 323.15 K
Assay readout: solubility (mole fraction)
No unit in the answer, please; the number alone is enough.

stdin: Which value of solubility (mole fraction) has been reported for `COc1ccc(CC(=O)O)cc1` in the records?
stdout: 0.166

---

Settings: in morpholine, 303.15 K
Assay readout: solubility (mole fraction)
No unit in the answer, please; the number alone is enough.

stdin: Which value of solubility (mole fraction) has been reported for `COc1ccc(CC(=O)O)cc1` in the records?
stdout: 0.0293

---

Settings: in isopropanol, 313.15 K
Assay readout: solubility (mole fraction)
No unit in the answer, please; the number alone is enough.

stdin: Which value of solubility (mole fraction) has been reported for `COc1ccc(CC(=O)O)cc1` in the records?
stdout: 0.289

---

Details: in water, 288.15 K
Assay readout: solubility (mole fraction)
No unit in the answer, please; the number alone is enough.

stdin: Which value of solubility (mole fraction) has been reported for `COc1ccc(CC(=O)O)cc1` in the records?
stdout: 0.002

---

Conditions: in acetonitrile, 308.15 K
Assay readout: solubility (mole fraction)
No unit in the answer, please; the number alone is enough.

stdin: Which value of solubility (mole fraction) has been reported for `COc1ccc(CC(=O)O)cc1` in the records?
stdout: 0.0941

---

Conditions: in toluene, 308.15 K
Assay readout: solubility (mole fraction)
No unit in the answer, please; the number alone is enough.

stdin: Which value of solubility (mole fraction) has been reported for `COc1ccc(CC(=O)O)cc1` in the records?
stdout: 0.0522

---

Conditions: in acetonitrile, 298.15 K
Assay readout: solubility (mole fraction)
No unit in the answer, please; the number alone is enough.

stdin: Which value of solubility (mole fraction) has been reported for `COc1ccc(CC(=O)O)cc1` in the records?
stdout: 0.0687

---

Conditions: in toluene, 318.15 K
Assay readout: solubility (mole fraction)
No unit in the answer, please; the number alone is enough.

stdin: Which value of solubility (mole fraction) has been reported for `COc1ccc(CC(=O)O)cc1` in the records?
stdout: 0.0784

---

Settings: in anisole, 308.15 K
Assay readout: solubility (mole fraction)
No unit in the answer, please; the number alone is enough.

stdin: Which value of solubility (mole fraction) has been reported for `COc1ccc(CC(=O)O)cc1` in the records?
stdout: 0.0858

---

Details: in acetonitrile, 283.15 K
Assay readout: solubility (mole fraction)
No unit in the answer, please; the number alone is enough.

stdin: Which value of solubility (mole fraction) has been reported for `COc1ccc(CC(=O)O)cc1` in the records?
stdout: 0.0423

---

Settings: in anisole, 318.15 K
Assay readout: solubility (mole fraction)

stdin: Which value of solubility (mole fraction) has been reported for `COc1ccc(CC(=O)O)cc1` in the records?
stdout: 0.118
